# Assay Comment: ratio of cathepsin B/papain
Readout: Ratio

CC(C)C[C@H](NC(=O)[C@@H]1O[C@@H]1C(=O)O)C(=O)N1CCC[C@H]1C(=O)O :: 0.07

[P] CCOC(=O)[C@H]1O[C@H]1C(=O)N[C@@H](CC(C)C)C(=O)N1CCC[C@H]1C(=O)O
[Q] CC(C)C[C@H](NC(=O)[C@@H]1O[C@@H]1C(=O)O)C(=O)N1CCC[C@H]1C(=O)OCc1ccccc1
[R] CC(C)CNC(=O)[C@H]1O[C@H]1C(=O)N[C@@H](CC(C)C)C(=O)N1CCC[C@H]1C(=O)O
[S] CC(C)CNC(=O)[C@H]1O[C@H]1C(=O)N[C@@H](CC(C)C)C(=O)N1CCC[C@H]1C(=O)OCc1ccccc1
[T] CCOC(=O)[C@H]1O[C@H]1C(=O)N[C@@H](CC(C)C)C(=O)N1CCC[C@H]1C(=O)OCc1ccccc1
(Q) rank_up(items): orders items by reported Ratio in ascending numerical order. # list labels per requested ordering
(A) Q, S, T, P, R

###

# Species: Rattus norvegicus
# Assay Comment: Second order rate constant for inactivation of rat cathepsin B
# Condition Context: in vitro
Readout: kinact/Ki (M⁻¹ s⁻¹)

Examples with their reported kinact/Ki follow.
CCOC(=O)[C@H]1O[C@H]1C(=O)N[C@@H](CC(C)C)C(=O)N1CCC[C@H]1C(=O)OCc1ccccc1 :: 30
CC(C)CNC(=O)[C@H]1O[C@H]1C(=O)N[C@@H](CC(C)C)C(=O)N1CCC[C@H]1C(=O)O :: 52000
CC(C)C[C@H](NC(=O)[C@@H]1O[C@@H]1C(=O)O)C(=O)N1CCC[C@H]1C(=O)O :: 2200

[A] CC(C)CNC(=O)[C@H]1O[C@H]1C(=O)N[C@@H](CC(C)C)C(=O)N1CCC[C@H]1C(=O)OCc1ccccc1
[B] CCOC(=O)[C@H]1O[C@H]1C(=O)N[C@@H](CC(C)C)C(=O)N1CCC[C@H]1C(=O)O
(Q) In terms of reported kinact/Ki, does A or B have the smaller number? # respond with the chosen item's label
(A) A

###

# Target Entity: papain (Carica papaya)
# Assay Comment: Second order rate constant for inactivation of papain
# Condition Context: in vitro
Readout: kinact/Ki (M⁻¹ s⁻¹)

CCOC(=O)[C@H]1O[C@H]1C(=O)N[C@@H](CC(C)C)C(=O)N1CCC[C@H]1C(=O)O :: 760

[I] CC(C)C[C@H](NC(=O)[C@@H]1O[C@@H]1C(=O)O)C(=O)N1CCC[C@H]1C(=O)O
[II] CCOC(=O)[C@H]1O[C@H]1C(=O)N[C@@H](CC(C)C)C(=O)N1CCC[C@H]1C(=O)OCc1ccccc1
[III] CC(C)CNC(=O)[C@H]1O[C@H]1C(=O)N[C@@H](CC(C)C)C(=O)N1CCC[C@H]1C(=O)O
[IV] CC(C)CNC(=O)[C@H]1O[C@H]1C(=O)N[C@@H](CC(C)C)C(=O)N1CCC[C@H]1C(=O)OCc1ccccc1
[V] CC(C)C[C@H](NC(=O)[C@@H]1O[C@@H]1C(=O)O)C(=O)N1CCC[C@H]1C(=O)OCc1ccccc1
(Q) Please put the entries in order of rising kinact/Ki. The response must list the labels following the requested ordering.
(A) II, III, IV, I, V
